The measurements presented in this section are drawn from patent US11247993B2.

assay.details: in vivo
Set-up: species or system SD rats
test.parameters: SD, rat, iv, 0.25 mg/kg
Below, each of the compounds is paired with its reported AUC(0-t) value.
// note: answer is a bare numeric in ng·h/mL

molecular.string	quantity	unit.annotation	experimental.value
O=C1c2c(O)c(=O)ccn2N([C@@H]2c3ccccc3SCc3c2ccc(F)c3F)[C@@H]2COCC3(CC3)N12	AUC(0-t)	ng·h/mL	187

Data request: Fill in AUC(0-t) for record O=C1c2c(O)c(=O)ccn2N([C@@H]2c3ccccc3SCc3c2ccc(F)c3F)[C@@H]2COC3(CC3)CN12
Data returned: 276

Data request: Given the compound O=C1c2c(O)c(=O)ccn2N([C@@H]2c3ccccc3SCc3c2ccc(F)c3F)CN1C12CC(C1)C2 , write its reported AUC(0-t).
Data returned: 307

###

assay.details: in vivo
Design: species or system SD rats
test.parameters: SD, rat, iv, 0.25 mg/kg
Item-by-item account of clearance
All answers are understood in mL/min/kg, so give the number only.

Example entries begin here.
molecular.string	quantity	experimental.value
O=C1c2c(O)c(=O)ccn2N([C@@H]2c3ccccc3SCc3c2ccc(F)c3F)[C@@H]2COC3(CC3)CN12	clearance	13.6
O=C1c2c(O)c(=O)ccn2N([C@@H]2c3ccccc3SCc3c2ccc(F)c3F)[C@@H]2COCC3(CC3)N12	clearance	20.9

Alright, here's another compound for you.
Data request: Please report the measured clearance for O=C1c2c(O)c(=O)ccn2N([C@@H]2c3ccccc3SCc3c2ccc(F)c3F)CN1C12CC(C1)C2
Data returned: 13

###

System: MDCK cells
assay.details: in vitro
Type: cell-based
quantity: CC50

Data request: State, in one line, measured CC50 of O=C1c2c(O)c(=O)ccn2N([C@@H]2c3ccccc3SCc3c2ccc(F)c3F)[C@@H]2COCCN12 [Baloxavir acid, reference compound]
Data returned: > 1 µM
